B1: Chromodomain-helicase-DNA-binding protein 4, residues 444 to 496; numbered along this chain, Q14839 (parent)
chain: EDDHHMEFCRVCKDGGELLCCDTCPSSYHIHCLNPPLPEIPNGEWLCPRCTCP

Variants of: B1
Assay: abundance fitness (aPCA) (normalised: wild type 0, dead -1); higher = more abundant; growth selection in yeast, the domain comes from the species named
Details: Homo sapiens
Assign abundance fitness to each entry below.
One number for each entry.

Reference set, count: 5
C20D
0.012
E7A
-0.366
D14I
-0.196
L19T
0.037
V11I
-0.074

Hi, could you look up abundance fitness for each item in my list?
1. V11R
2. I40Y
3. V11D
4. D14Y
5. N34S
6. E39C

Reply:
0.012
0.016
-0.103
-0.412
0.018
-0.178
